# Tested on: SNB-19
# test: Antitumor activity against human SNB19 cells after 2 hrs
# Assay type: functional, cell-based
# condition: SNB-19, 2 h
pIC50: −log10 of the molar value.

{"columns": ["chemical.string", "assay.target", "pIC50"],
 "data": [
  ["Cc1onc(-c2c3ccccc3c(Cl)c3ccccc23)c1C(=O)NCCCN(C)CCCNC(=O)c1c(-c2c3ccccc3c(Cl)c3ccccc23)noc1C", "SNB-19", 3.94]
]}
